The origin of these recorded values is patent US20230066946A1.

Pre-emergence action at 1280 g/ha against CYPES in % reference
- System: CYPES
- EXPERIMENT NOTES: Pre-emergence herbicidal action against CYPES
- Assay type: in vivo, Cyperus esculentus
- MEASUREMENT PARAMETERS: scored visually after about 3 weeks vs untreated controls, 100% = plants have died, 0% = like control plants
TEST READOUT: Pre-emergence action at 1280 g/ha against CYPES in % (%)

* COC(=O)COc1nn(-c2ccccc2F)c(-c2ccccc2)c1C#N | 100
* COC(=O)C(C)Oc1nn(-c2ccccc2F)c(-c2ccccc2)c1C#N (stereo not drawn) | 90
* COC(=O)COc1nn(-c2ccc(F)cc2)c(-c2ccc(F)cc2)c1Cl | 100
* CCOC(=O)COc1nn(-c2ccccc2)c(-c2ccccc2)c1Br | 80
* COC(=O)COc1nn(-c2cccc(F)c2)c(-c2cccc(F)c2)c1Cl | 100
* CCOC(=O)COc1nn(-c2ccccc2)c(-c2ccc(F)cc2)c1Br | 90
* COC(=O)COc1nn(-c2ccccc2)c(-c2cccc(F)c2)c1C#N | 100
* COC(=O)COc1nn(-c2cccc(F)c2)c(-c2ccc(F)cc2)c1C#N | 100
* COC(=O)C(C)Oc1nn(-c2cccc(F)c2)c(-c2cccc(F)c2)c1C#N (stereo not drawn) | 90
